# key: entry, value: crosslinking efficiency
assayed.target: T1, PSMA (commercial, Sino Bio cat #15877-H07H) (UniProt Q04609 44-750)
T1 construct: also called receptor
T1 sequence (Q04609 44-750 limits assumed): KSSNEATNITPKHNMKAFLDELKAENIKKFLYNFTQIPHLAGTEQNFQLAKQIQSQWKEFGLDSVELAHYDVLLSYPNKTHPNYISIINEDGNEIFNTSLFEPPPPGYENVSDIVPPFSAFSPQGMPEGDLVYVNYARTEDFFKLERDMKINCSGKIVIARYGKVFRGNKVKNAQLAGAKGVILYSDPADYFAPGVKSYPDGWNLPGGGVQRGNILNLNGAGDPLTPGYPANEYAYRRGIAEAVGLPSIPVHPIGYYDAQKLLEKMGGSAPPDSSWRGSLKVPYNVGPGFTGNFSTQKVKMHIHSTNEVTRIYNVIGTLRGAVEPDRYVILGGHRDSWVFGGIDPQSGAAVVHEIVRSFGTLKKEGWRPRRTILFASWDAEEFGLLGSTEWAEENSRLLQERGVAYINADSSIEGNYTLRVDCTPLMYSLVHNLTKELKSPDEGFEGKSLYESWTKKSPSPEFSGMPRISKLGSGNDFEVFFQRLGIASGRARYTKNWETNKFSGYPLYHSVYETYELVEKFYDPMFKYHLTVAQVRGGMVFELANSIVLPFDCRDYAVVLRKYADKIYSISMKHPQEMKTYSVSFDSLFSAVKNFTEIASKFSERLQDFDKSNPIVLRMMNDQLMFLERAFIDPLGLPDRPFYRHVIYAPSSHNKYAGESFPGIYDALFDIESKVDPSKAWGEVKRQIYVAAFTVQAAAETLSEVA
method.notes: SDS-PAGE, lysate + PSMA, 3 h 37C

Reference set, count: 2
>>> measured_value("C3-107FSY (VHH, not fully specified; FSY at 107, plus C-terminal His6; tested as cell lysate) VHH: QVQLQESGGGSVEAGGSLRLSCARSGWPYSTYSMNWFRQAPGKEREAVAGISSTMSGIIFAESKAGQFTISQDNAKNTVYLQMNNLKPEDTAIYYCAARRDYSLSSXSDDFDYWGQGTQVTVSS")
"< 50%"
>>> measured_value("C3-103FSY (VHH, not fully specified; FSY at 103, plus C-terminal His6; tested as cell lysate) VHH: QVQLQESGGGSVEAGGSLRLSCARSGWPYSTYSMNWFRQAPGKEREAVAGISSTMSGIIFAESKAGQFTISQDNAKNTVYLQMNNLKPEDTAIYYCAARRDYXLSSSSDDFDYWGQGTQVTVSS")
"< 50%"

// moving on: another record for crosslinking efficiency
Quick one: crosslinking efficiency for C3-62FSY (VHH, not fully specified; FSY at 62, plus C-terminal His6; tested as cell lysate) VHH: QVQLQESGGGSVEAGGSLRLSCARSGWPYSTYSMNWFRQAPGKEREAVAGISSTMSGIIFAXSKAGQFTISQDNAKNTVYLQMNNLKPEDTAIYYCAARRDYSLSSSSDDFDYWGQGTQVTVSS ? > 50%
